assay: Intrinsic clearance (CLint) assay, human liver microsomes; assay type: in vitro ADME; settings: human, pooled human liver microsomes, pH 7.4, human liver microsomes; read-out: Microsomal t1/2 Human
Non-standard residues stand in square brackets, D forms with d. Residues, ends and D or L forms follow the SMILES beside them. *: point of attachment. dPhe(4-Cl) = N[C@H](Cc1ccc(Cl)cc1)C(=O)O; NMeL = CN[C@@H](CC(C)C)C(=O)O; NMeV = CN[C@H](C(=O)O)C(C)C; dOrn = NCCC[C@@H](N)C(=O)O; tBu = CC(C)(C)*
Here, each record is paired with measured half-life at 0.5 µM data.
PARAMETER: half-life at 0.5 µM (min)

>  <MOLECULE>
CC[C@H](C)[C@@H]1NC(=O)[C@@H](CC(C)C)NC(=O)[C@H](CC(C)C)NC(=O)[C@H](Cc2c[nH]c3ccccc23)NC(=O)[C@@H](CCCN)NC(=O)[C@H](COC(C)(C)C)NC1=O [Compound 11c] (cyclo(IS(tBu)[dOrn]WL[dL]))

>  <OP>
=

>  <ASSAY_RESULT>
16.5

$$$$
>  <MOLECULE>
CC[C@H](C)[C@@H]1NC(=O)[C@@H](Cc2ccc(Cl)cc2)NC(=O)[C@H](CC(C)C)NC(=O)[C@H](Cc2c[nH]c3ccccc23)NC(=O)[C@@H](CCCN)NC(=O)[C@@H](CCCN)NC1=O [Compound 18c] (cyclo(I[dOrn][dOrn]WL[dPhe(4-Cl)]))

>  <OP>
=

>  <ASSAY_RESULT>
51.7

$$$$
>  <MOLECULE>
CC[C@H](C)[C@@H]1NC(=O)[C@H](Cc2c[nH]c3ccccc23)NC(=O)[C@@H](CCCN)NC(=O)[C@H](CC(N)=O)NC(=O)[C@H](C(C)C)NC(=O)[C@@H](CC(C)C)NC1=O [Compound 19c] (cyclo(I[dL]VN[dOrn]W))

>  <OP>
>

>  <ASSAY_RESULT>
139

$$$$
>  <MOLECULE>
CC(C)C[C@H]1NC(=O)[C@H](CC(C)C)N(C)C(=O)[C@H](Cc2c[nH]c3ccccc23)NC(=O)[C@@H](CCCN)NC(=O)[C@H](CC(N)=O)NC(=O)[C@H](C(C)C)N(C)C1=O [Compound 24c] (cyclo(N[dOrn]W[NMeL][dL][NMeV]))

>  <OP>
=

>  <ASSAY_RESULT>
37.3

$$$$
